# Assayed target: Hepatocyte growth factor receptor (Homo sapiens)
# Sequence (P08581 whole entry): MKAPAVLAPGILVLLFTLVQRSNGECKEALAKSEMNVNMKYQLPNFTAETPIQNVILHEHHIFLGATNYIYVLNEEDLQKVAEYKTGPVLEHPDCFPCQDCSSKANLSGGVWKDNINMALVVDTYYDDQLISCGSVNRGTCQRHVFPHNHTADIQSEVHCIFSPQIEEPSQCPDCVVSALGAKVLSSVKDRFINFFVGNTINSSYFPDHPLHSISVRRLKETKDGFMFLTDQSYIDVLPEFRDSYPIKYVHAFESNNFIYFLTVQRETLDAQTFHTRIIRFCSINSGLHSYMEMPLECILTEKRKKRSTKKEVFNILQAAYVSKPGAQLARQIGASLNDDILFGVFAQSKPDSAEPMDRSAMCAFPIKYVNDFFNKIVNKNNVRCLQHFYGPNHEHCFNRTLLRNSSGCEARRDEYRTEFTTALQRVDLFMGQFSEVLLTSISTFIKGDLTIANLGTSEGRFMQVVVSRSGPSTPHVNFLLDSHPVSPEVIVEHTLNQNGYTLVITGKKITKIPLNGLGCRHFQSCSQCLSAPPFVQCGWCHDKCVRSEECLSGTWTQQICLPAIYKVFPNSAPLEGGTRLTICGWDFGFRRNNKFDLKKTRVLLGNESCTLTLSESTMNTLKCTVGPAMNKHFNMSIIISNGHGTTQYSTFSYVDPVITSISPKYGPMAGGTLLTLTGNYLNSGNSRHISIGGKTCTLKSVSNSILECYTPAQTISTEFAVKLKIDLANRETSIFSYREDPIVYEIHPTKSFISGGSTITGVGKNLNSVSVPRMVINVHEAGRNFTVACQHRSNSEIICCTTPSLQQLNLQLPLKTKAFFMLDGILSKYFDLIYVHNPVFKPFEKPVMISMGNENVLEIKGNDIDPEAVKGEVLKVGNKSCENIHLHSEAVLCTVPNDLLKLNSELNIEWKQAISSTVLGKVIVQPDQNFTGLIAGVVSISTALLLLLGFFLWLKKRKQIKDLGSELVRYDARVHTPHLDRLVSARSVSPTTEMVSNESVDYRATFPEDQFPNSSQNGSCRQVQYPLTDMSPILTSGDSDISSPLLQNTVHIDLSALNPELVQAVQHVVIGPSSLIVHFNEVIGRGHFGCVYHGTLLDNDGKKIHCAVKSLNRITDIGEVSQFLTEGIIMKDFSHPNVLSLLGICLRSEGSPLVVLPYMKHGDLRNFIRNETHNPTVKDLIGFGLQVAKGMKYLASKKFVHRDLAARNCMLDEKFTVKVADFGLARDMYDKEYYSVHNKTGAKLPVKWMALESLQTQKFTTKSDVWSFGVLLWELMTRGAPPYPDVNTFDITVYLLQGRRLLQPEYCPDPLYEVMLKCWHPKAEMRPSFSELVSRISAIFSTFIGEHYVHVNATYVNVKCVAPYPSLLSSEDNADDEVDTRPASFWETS
# Assay: Inhibition Assay
Quantity measured: IC50 (µM)

sample_smiles=COc1cc2nccc(Oc3ccc(NC(=O)N4CCN(c5ccccc5)C4=O)cc3F)c2cc1OC val=0.01
sample_smiles=CCn1cnc(-c2cc3nccc(Oc4ccc(NC(=O)N5CCN(c6ccccc6)C5=O)cc4F)c3s2)c1 val=0.01

* * *

pIC50: −log10 of the molar value.
Observed pIC50 for High affinity nerve growth factor receptor (Homo sapiens, UniProt P04629), reported per entry below.
Quantity measured: pIC50

Answered examples (2):
compound="CNC(=O)Nc1cc(Oc2ccc(NC(=O)N3CCN(c4ccc(F)cc4)C3=O)cc2)ccn1 [2-oxoimidazolidine-1-carboxamide, 16]" assayed_target="High affinity nerve growth factor receptor (Homo sapiens, UniProt P04629)" val=8.70
compound="CC(=O)Nc1cc(Oc2ccc(NC(=O)N3CCN(c4ccc(F)cc4)C3=O)cc2)ccn1 [2-oxoimidazolidine-1-carboxamide, 14]" assayed_target="High affinity nerve growth factor receptor (Homo sapiens, UniProt P04629)" val=8.52

I = Nc1cc(Oc2ccc(NC(=O)N3CCN(c4ccccc4)C3=O)cc2)ccn1 [2-oxoimidazolidine-1-carboxamide, 13]
II = CNC(=O)Nc1cc(Oc2ccc(NC(=O)N3CCN(c4ccccc4)C3=O)cc2)ccn1 [2-oxoimidazolidine-1-carboxamide, 15]
Kindly identify the item with the lower pIC50 figure among these two: I and II I would appreciate it if you answered with the label of your choice.
I
(I: 7.70, II: 8.30)
